target_under_test: Coagulation factor X (Homo sapiens) (UniProt P00742)
Sequence (P00742 41-179 limits assumed): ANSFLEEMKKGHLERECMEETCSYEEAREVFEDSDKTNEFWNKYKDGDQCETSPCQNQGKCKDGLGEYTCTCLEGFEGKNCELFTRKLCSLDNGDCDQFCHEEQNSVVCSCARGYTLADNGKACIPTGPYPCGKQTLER
Sequence (P00742 235-488 limits assumed): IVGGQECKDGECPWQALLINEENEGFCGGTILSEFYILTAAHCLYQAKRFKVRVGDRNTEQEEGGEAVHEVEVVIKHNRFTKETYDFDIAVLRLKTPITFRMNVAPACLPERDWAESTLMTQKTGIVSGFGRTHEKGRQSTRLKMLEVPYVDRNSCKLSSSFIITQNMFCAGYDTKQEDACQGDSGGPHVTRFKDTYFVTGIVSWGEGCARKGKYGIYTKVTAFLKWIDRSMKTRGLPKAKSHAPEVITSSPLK
test_name: Inhibition of human factor 10a using CH3SO2-D-Leu-Gly-Arg-pNA, AcOH as substrate at 1 x 10^-3 M by chromogenic substrate hydrolysis assay
Active and inactive are the calls of the source. No cut-off for these calls is given here.
property: inhibition

>>> observed("Cc1cc(=O)oc2cc(O[C@@H]3O[C@H](COS(=O)(=O)[O-])[C@@H](OS(=O)(=O)[O-])[C@H](OS(=O)(=O)[O-])[C@H]3OS(=O)(=O)[O-])ccc12.[Na+].[Na+].[Na+].[Na+]")
"inactive"
>>> observed("O=C(O)c1cc(OS(=O)(=O)[O-])c(OS(=O)(=O)[O-])c(OS(=O)(=O)[O-])c1.[Na+].[Na+].[Na+]")
"inactive"
>>> observed("O=S(=O)([O-])OCc1ccccc1O[C@@H]1O[C@H](COS(=O)(=O)[O-])[C@@H](OS(=O)(=O)[O-])[C@H](OS(=O)(=O)[O-])[C@H]1OS(=O)(=O)[O-].[Na+].[Na+].[Na+].[Na+].[Na+] [SALICIN PERSULFATE]")
"inactive"

---

System: Platelet
test_name: Antiplatelet activity against arachidonic acid-induced platelet aggregation in human blood at 6.25 x 10^-4 M measured for 6 mins by multiplate electrical impedance aggregometry
Assay type: functional, cell-based
Consider the following compounds and their measured AUC readings.
Kindly answer with a numeric value in AU.min, unit omitted.

Consider the reported AUC for these compounds:
>>> observed("C[C@@H]1O[C@@H](OC[C@H]2O[C@@H](Oc3c(-c4ccc(OS(=O)(=O)[O-])c(OS(=O)(=O)[O-])c4)oc4cc(OS(=O)(=O)[O-])cc(OS(=O)(=O)[O-])c4c3=O)[C@H](OS(=O)(=O)[O-])[C@@H](OS(=O)(=O)[O-])[C@@H]2OS(=O)(=O)[O-])[C@H](OS(=O)(=O)[O-])[C@H](OS(=O)(=O)[O-])[C@H]1OS(=O)(=O)[O-].[Na+].[Na+].[Na+].[Na+].[Na+].[Na+].[Na+].[Na+].[Na+].[Na+]")
215
>>> observed("COc1ccc(-c2cc(=O)c3c(O)cc(O[C@@H]4O[C@H](CO[C@@H]5O[C@@H](C)[C@H](OS(=O)(=O)[O-])[C@@H](OS(=O)(=O)[O-])[C@H]5OS(=O)(=O)[O-])[C@@H](OS(=O)(=O)[O-])[C@H](OS(=O)(=O)[O-])[C@H]4OS(=O)(=O)[O-])cc3o2)cc1O.[Na+].[Na+].[Na+].[Na+].[Na+].[Na+] [HEXASULFATED DIOSMIN]")
340
>>> observed("C[C@@H]1O[C@@H](OC[C@H]2O[C@@H](Oc3c(-c4ccc(OCCOS(=O)(=O)[O-])c(OCCOS(=O)(=O)[O-])c4)oc4cc(OCCOS(=O)(=O)[O-])cc(O)c4c3=O)[C@H](OS(=O)(=O)[O-])[C@@H](OS(=O)(=O)[O-])[C@@H]2OS(=O)(=O)[O-])[C@H](OS(=O)(=O)[O-])[C@H](OS(=O)(=O)[O-])[C@H]1OS(=O)(=O)[O-].[Na+].[Na+].[Na+].[Na+].[Na+].[Na+].[Na+].[Na+].[Na+]")
330

Next item in the queue.
Sure, the documented AUC for CC(=O)Oc1ccccc1C(=O)O is 230
